- ASSAY TEXT: HSF-1 activators, primary screen, NIH3T3-HGL cells, MG132 stress, luminescence, single point (AID 504408);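 also: 0% = median of the neutral control wells and 100% = twice that signal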
- STATED CONDITIONS: NIH3T3-HGL HSF-1 luciferase reporter, MG132, 8 h; at 9 µM; hits give high values; 100% = twice DMSO control signal
In all, about 300,000 compounds went through this assay and about 5,200 (1.7%) were called active. This is one part of a sample in which actives are shown more often than they occur.
ENDPOINT LABEL: activation (%)
Quick reminder: number only, in %, skip the unit.

* O=C(c1ccc(F)cc1)N1CCC(C(=O)N2CCN(S(=O)(=O)c3ccccc3Br)CC2)CC1 | -3.27

So what does the record say about activation for O=C(CSc1nc2nccnc2c(=O)n1Cc1cccs1)Nc1ccccc1F ? 77.1

So what does the record say about activation for COCCn1c(SCC(=O)Nc2ccccc2F)nc2c(c1=O)SCC2 ? 54.8

What value of activation has been recorded for this entry: COCCn1c(SCC(=O)Nc2cc(Cl)ccc2OC)nc2c(c1=O)SC(C)C2 (stereo unspecified) -0.138

Any idea what its activation is? The molecule is COCCn1c(SCC(=O)N2CCCCCC2)nc2c(c1=O)SCC2 2.01

# query: activation of entry COc1ccc(-c2nnc3ccc(SCc4ccccc4)nn23)cc1 16

Entry COC(=O)CSc1nc(C)c2ccc(OC)cc2n1 : reported activation = ? 17.7

Record request: activation value, item Cc1cc(OCC(=O)N(C)c2c(N)n(Cc3ccccc3)c(=O)[nH]c2=O)c(C(C)C)cc1Cl -0.115

Entry under review: O=C(NCCCN1CCCC1=O)c1ccc(S(=O)(=O)Nc2ccccc2)cc1 . Reported activation? 16.8

May I ask what activation has been recorded for O=C(CSc1ccc(-c2cccs2)nn1)Nc1ccccc1F ? -2.98

Sample CCOc1ccc(NC(=O)CSc2nc3ccccc3c(=O)n2Cc2cccs2)cc1 — what was its activation? -10.7
